The reported numbers originate from patent US6780972B2.

assay: Cetrorelix plasma concentration and bioavailability after administration of the Cetrorelix embonate (2:1) lyophilysate in man (Clinical Phase I); format: in vivo; conditions: human, plasma; 60 mg in man, constant 150 hours after the administration, FIG. 1
Non-standard residues stand in square brackets, D forms with d. Residues, ends and D or L forms follow the SMILES beside them. dPhe(4-Cl) = N[C@H](Cc1ccc(Cl)cc1)C(=O)O; d2Nal = N[C@H](Cc1ccc2ccccc2c1)C(=O)O; dCit = NC(=O)NCCC[C@@H](N)C(=O)O; d3Pal = N[C@H](Cc1cccnc1)C(=O)O
Endpoint Name: level at 150 h

### Prompt Consider the compound shown here: CC(=O)N[C@H](Cc1ccc2ccccc2c1)C(=O)N[C@H](Cc1ccc(Cl)cc1)C(=O)N[C@H](Cc1cccnc1)C(=O)N[C@@H](CO)C(=O)N[C@@H](Cc1ccc(O)cc1)C(=O)N[C@H](CCCNC(N)=O)C(=O)N[C@@H](CC(C)C)C(=O)N[C@@H](CCCNC(=N)N)C(=O)N1CCC[C@H]1C(=O)N[C@H](C)C(N)=O [Cetrorelix embonate (2:1), Cetrorelix embonate] (Ac-[d2Nal][dPhe(4-Cl)][d3Pal]SY[dCit]LRP[dA]-NH2; N-terminus and C-terminus assumed) What is its recorded level at 150 h?
### Response ~2 ng/mL

====

assay: Cetrorelix plasma concentration and bioavailability after administration of the Cetrorelix embonate (2:1) lyophilysate in man (Clinical Phase I); format: in vivo; conditions: human, in vivo, subcutaneous; s.c. administration; 100% = intravenously administered Cetrolix acetate
Non-standard residues stand in square brackets, D forms with d. Residues, ends and D or L forms follow the SMILES beside them. dPhe(4-Cl) = N[C@H](Cc1ccc(Cl)cc1)C(=O)O; d2Nal = N[C@H](Cc1ccc2ccccc2c1)C(=O)O; dCit = NC(=O)NCCC[C@@H](N)C(=O)O; d3Pal = N[C@H](Cc1cccnc1)C(=O)O
Endpoint Name: bioavailability

### Prompt Consider the molecule shown here: CC(=O)N[C@H](Cc1ccc2ccccc2c1)C(=O)N[C@H](Cc1ccc(Cl)cc1)C(=O)N[C@H](Cc1cccnc1)C(=O)N[C@@H](CO)C(=O)N[C@@H](Cc1ccc(O)cc1)C(=O)N[C@H](CCCNC(N)=O)C(=O)N[C@@H](CC(C)C)C(=O)N[C@@H](CCCNC(=N)N)C(=O)N1CCC[C@H]1C(=O)N[C@H](C)C(N)=O [Cetrorelix embonate (2:1), Cetrorelix embonate] (Ac-[d2Nal][dPhe(4-Cl)][d3Pal]SY[dCit]LRP[dA]-NH2; N-terminus and C-terminus assumed) What is its recorded bioavailability?
### Response 30 to 50%

====

test: Cetrorelix plasma concentration and bioavailability after administration of the Cetrorelix embonate (2:1) lyophilysate in man (Clinical Phase I); type: in vivo; settings: human, plasma; 60 mg in man, FIG. 1
Non-standard residues stand in square brackets, D forms with d. Residues, ends and D or L forms follow the SMILES beside them. dPhe(4-Cl) = N[C@H](Cc1ccc(Cl)cc1)C(=O)O; d2Nal = N[C@H](Cc1ccc2ccccc2c1)C(=O)O; dCit = NC(=O)NCCC[C@@H](N)C(=O)O; d3Pal = N[C@H](Cc1cccnc1)C(=O)O
Endpoint Name: bioavailability

### Prompt Consider the compound shown here: CC(=O)N[C@H](Cc1ccc2ccccc2c1)C(=O)N[C@H](Cc1ccc(Cl)cc1)C(=O)N[C@H](Cc1cccnc1)C(=O)N[C@@H](CO)C(=O)N[C@@H](Cc1ccc(O)cc1)C(=O)N[C@H](CCCNC(N)=O)C(=O)N[C@@H](CC(C)C)C(=O)N[C@@H](CCCNC(=N)N)C(=O)N1CCC[C@H]1C(=O)N[C@H](C)C(N)=O [Cetrorelix embonate (2:1), Cetrorelix embonate] (Ac-[d2Nal][dPhe(4-Cl)][d3Pal]SY[dCit]LRP[dA]-NH2; N-terminus and C-terminus assumed) What is its recorded bioavailability?
### Response ~40%
